Documented IC50 across a set of binders
target: T1, 融合至人IgG1 Fc段的人PD-L1胞外结构域的重组蛋白PD-L1-Fc (GenScript, Z03371) (human, UniProt Q9NZQ7 19-238, biotin-labelled in the PD-1 competition ELISA (site not stated)); assay: competition ELISA: antibody titrated against biotinylated PD-L1-Fc binding to coated human PD-1
T1 construct: extracellular domain; Bought reagent (GenScript Z03371); also called 重组PD-L1-Fc; 生物素标记的PD-L1-Fc; not shown: Human IgG1 Fc segment
T1 sequence (Q9NZQ7 19-238 limits assumed, one chain of several): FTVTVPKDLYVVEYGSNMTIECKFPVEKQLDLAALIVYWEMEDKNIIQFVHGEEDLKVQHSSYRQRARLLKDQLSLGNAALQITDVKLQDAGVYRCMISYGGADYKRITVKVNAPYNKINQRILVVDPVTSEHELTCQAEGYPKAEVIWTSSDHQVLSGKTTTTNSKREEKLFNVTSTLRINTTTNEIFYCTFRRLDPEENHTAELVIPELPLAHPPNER
QUANTITY_KIND: IC50 (µg/mL)

INSERT INTO results (binder, quantity_kind, measurement) VALUES
  ('53C1F3D4 (antibody, V domains shown, Mouse hybridoma clone; Made recombinantly as variable region + constant region in HEK293-6E) VH: QVQLQQSGNELARPGASVRLSCKASGYIFTGYGITWVRQRPGQGLEWIGEIFPRRVNTYYSEKFKGRATLTADISSSTAYMELRSLTSEDSAVYFCARDYDPYFALDYWGQGTSVTVSS VL: DIVMTQSHKFMSTSVGDRVSITCKASQDVSTAVDWYQQKPGQSPKLLIYSASYRYTGVPDRFTGSGSGTAFTFTISGEQAEDLAVYYCQQHYSIPFTFGGGTKLEIK', 'IC50', 0.32),
  ('42G2D7C3 (antibody, V domains shown, Made recombinantly as variable region + constant region; also called 42G2D7D3) VH: DVQLLESGPGLVKPSQSLSLTCSVTGYSITSGYYWNWIRQFPGNNLEWMGSINYDGSNDYNPSLQDRISITRDTSKNQFFLKLNSVTTEDTATYYCARRLDYWGQGTTLIVSS VL: QIVLTQSPAIMSASPGEKVTISCSASSFINYMYWYQQKPGSSPKPWILRTSTLASGVPARFSGSGSGTSYSLTISSMEAEDAATYYCQQYHSYPLTFGAGTKLELK', 'IC50', 0.48),
  ('51F3D2G4 (antibody, V domains shown, Mouse hybridoma clone; Made recombinantly as variable region + constant region in HEK293-6E) VH: QVQLQQSGAELARPGASVRLSCKASGYIFTGYGISWVKQRTGQGLEWIGEIFPRTANTYFNEKFKGKATLTADKSSSTAYMELRSLTSEDSAVYFCARDYDPYYALDYWGQGTSVTVSS VL: DIVMTQSHKFMSTSVGDRVTITCKASQDVSTAVDWYQQKPGQSPKLLIYSASYRYTGVPDRFTGSGSGTAFTFTISSEQAEDLAVYYCQQHYSVPFTFGGGTKLEIK', 'IC50', 0.4),
  ('29A8H8C7 (antibody, V domains shown, Mouse hybridoma clone; Made recombinantly as variable region + constant region in HEK293-6E) VH: DVQLQGSGPGLVKPSQSLSLTCTVTGYSITSDFAWDWIRQFPGNKLEWMGHIRFSGTTSYNPSLKSRISITRDTSKNQFFLQLNSVTSEDTATYYCARSTLITKGFFDYWGQGTTLTVSS VL: DIVMTQSHKFMSTSVGGRVSITCKASQDVSPAVAWYQQKPGQSPKLLIYWASTRHTGVPDRFTGSGSGTDFTLTISSVQTEDLALYYCQQHYSTPWTFGGGTKLEIK', 'IC50', 0.39);

Taken from patent CN108239149A.
